Values compiled from PubChem BioAssay (EPA / NIEHS).

system: human Fibroblast Growth Factor Receptor 1 (FGFR1), FGFR1 (gene 2260)
assayMethodText: NVS_ENZ_hFGFR1: NovaScreen (NVS) Enzymatic Assay for human Fibroblast Growth Factor Receptor 1 (FGFR1) (AID 2283159)
Results filed as inconclusive are left out. Active and inactive are the calls of the source. How the source made its calls: active means hit-call score of the fitted dose curve at least 0.9, where 1 is the maximum; inconclusive means response in the unintended direction; inactive means score below 0.9.
Classes used: Yes for active, No for inactive

smi	category
CCCCCCCC/C=C\CCCCCCCC(=O)OC[C@@H](O)[C@H]1OC[C@H](O)[C@H]1O	No
CN(C)CCCN1c2ccccc2Sc2ccc(Cl)cc21	No
CNC(=O)[C@H]1O[C@@H](n2cnc3c(NCc4cc(Cl)ccc4OCc4cc(C)no4)ncnc32)[C@H](O)[C@@H]1N	No
CCCCCCCCN(C)CCCCCCCC	Yes

====

Test system: Sodium/Iodide Symporter (NIS), SLC5A5 (gene 6528)
assayMethodText: CPHEA_Stoker_NIS_Inhibition_RAIU: CPHEA's Radioactive Iodide Uptake (RAIU) Assay for Sodium/Iodide Symporter (NIS) Inhibition, Stoker and Laws Labs (AID 2283841)
Inconclusive results are not listed. The source made the active and inactive calls. The calls were made as follows: active = hit-call score of the fitted dose curve at least 0.9, where 1 is the maximum; inconclusive = response in the unintended direction; inactive = score below 0.9.
Labels: active, inactive

molecule	category
CCCCCCCCCCCCCCCC[N+](C)(C)C	active
Cc1ccc(OP(=O)(Oc2ccc(C)cc2)Oc2ccc(C)cc2)cc1 (tested in a mixture with another compound)	inactive
O=[N+]([O-])O	inactive
O=C(CCl)c1ccccc1	inactive
O=P(O)(Oc1ccccc1)Oc1ccccc1	inactive
O=CNC(N1CCN(C(NC=O)C(Cl)(Cl)Cl)CC1)C(Cl)(Cl)Cl (stereo unspecified)	inactive

====

assayMethodText: IUF_NPC1_viability_72hr: Viability Assessment at 72 hours in the Leibniz Research Institute for Environmental Medicine (IUF) Neural Progenitor Cell Proliferation Assay (NPC1) (AID 2284209)
Active and inactive are the calls of the source. The calls were made as follows: active = hit-call score of the fitted dose curve at least 0.9, where 1 is the maximum; inactive = score below 0.9.

molecule	outcome
Brc1ccc(Oc2ccc(Br)cc2Br)c(Br)c1	inactive
[O-][Cl+3]([O-])([O-])O	inactive
CC1(C)C(C=C(Cl)c2ccc(Cl)cc2)C1C(=O)OC(C#N)c1ccc(F)c(Oc2ccccc2)c1 (stereo not given)	inactive
C/C(=C/C=C/[C@@H](C)C(=O)O)[C@H]1CN[C@H](C(=O)O)[C@H]1CC(=O)O	inactive
Cc1ccc(OP(=O)(Oc2ccc(C)cc2)Oc2ccc(C)cc2)cc1 (tested in a mixture with another compound)	inactive

====

assayMethodText: ATG_ISRE_CIS: Attagene CIS-FACTORIAL HepG2 Assay for human Interferon Regulatory Factor 1 (IRF1) binding to an Interferon-Stimulated Response Element (ISRE) (AID 2282948)
settings: HepG2 ISRE cis-reporter (Attagene), mRNA transcription readout; actives raise or lower the signal
Active and inactive are the calls of the source. How the source made its calls: active means hit-call score of the fitted dose curve at least 0.9, where 1 is the maximum; inactive means score below 0.9.
Possible outcomes: active, inactive

compound	category
CCOP(=O)(OCC)Oc1ccc([N+](=O)[O-])cc1	inactive
N#CC(c1ccccc1)c1ccccc1	inactive
ClCC(Cl)Cl	inactive
CC(C)COP(=O)(OCC(C)C)OCC(C)C	inactive
N#CCCCl	inactive
c1cc(OCC2CO2)ccc1Cc1ccc(OCC2CO2)cc1 (stereo not given)	active
CN1C(=O)CCS(=O)(=O)C1c1ccc(Cl)cc1 (stereo not given)	inactive
Cc1ccc(C)c2ccccc12	inactive
CN(C)CCC#N	inactive
O=c1c2ccccc2c(=O)c2c1cc(Cl)c1[nH]c3c([nH]c12)c(Cl)cc1c(=O)c2ccccc2c(=O)c13	inactive
CC(O)CN(CC(C)O)CC(C)O (stereo not given)	inactive
COC(C)(C)CCC[C@H](C)C/C=C/C(C)=C/C(=O)OC(C)C	inactive
COc1cc(OC)c(OC)cc1C=O	inactive
O=C(O)C(Br)Br	inactive
CCCCCc1cc(O)cc(O)c1	inactive
Clc1ccc(-c2ccccc2)cc1	inactive
CC(C)c1ccc(O)cc1	inactive
C[N+](C)=CCl	inactive
C[C@]12CC[C@H]3[C@@H](CC[C@@]45O[C@@H]4C(O)=C(C#N)C[C@]35C)[C@@H]1CC[C@@H]2O	active
Oc1cc(Cl)ccc1Cl	inactive
C=C(Cl)CCl	inactive
Nc1cc(Cl)cc(Cl)c1	inactive
O=C(O)CCCc1ccc(N(CCCl)CCCl)cc1	inactive
Cc1ccc(N(SC(F)(Cl)Cl)S(=O)(=O)N(C)C)cc1	active
CC(Cc1ccc(C(C)(C)C)cc1)CN1C[C@@H](C)O[C@@H](C)C1 (stereo not given in full)	inactive
CCC1CCC(=O)O1 (stereo not given)	inactive
Nc1c(Cl)c(Cl)c(Cl)c(Cl)c1Cl	inactive
N#Cc1cccc(C#N)c1	inactive
N#Cc1cc(I)c(O)c(I)c1	inactive
CCOP(O)OCC	inactive

====

assayMethodText: TOX21_p53_BLA_p2_viability: Viability Assessment in the Tox21 HCT-116 p53 Agonism Beta-lactamase Assay, Phase 2 (AID 2283591);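 further: compound exposure lasted 16 h at 37 °C; actives lower the ATP signal meaning cytotoxicity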
Inconclusive results are not listed. Calls of active or inactive are those of the source. How the source made its calls: active means hit-call score of the fitted dose curve at least 0.9, where 1 is the maximum; inconclusive means response in the unintended direction; inactive means score below 0.9.
Possible outcomes: active, inactive

compound	category
C[C@@H]1CC[C@@]2(OC1)O[C@H]1[C@@H](O)[C@H]3[C@@H]4CC[C@H]5C[C@@H](O[C@@H]6O[C@H](CO)[C@H](O[C@@H]7O[C@H](CO)[C@@H](O)[C@H](O[C@@H]8OC[C@@H](O)[C@H](O)[C@H]8O)[C@H]7O[C@@H]7O[C@H](CO)[C@@H](O)[C@H](O[C@@H]8O[C@H](CO)[C@@H](O)[C@H](O)[C@H]8O)[C@H]7O)[C@H](O)[C@H]6O)[C@H](O)C[C@]5(C)[C@H]4CC[C@]3(C)[C@H]1[C@@H]2C	active
O=P(O)(O)C(Cl)(Cl)P(=O)(O)O	inactive
O=C1c2ccccc2C(=O)C1C(=O)C(c1ccccc1)c1ccccc1	inactive
Nc1ccc([As](=O)(O)O)cc1	inactive
CCOC(=O)CBr	inactive
COC(=O)[C@H]1[C@@H](OC(=O)c2ccccc2)C[C@@H]2CC[C@H]1N2C	inactive
O=C1CCCCC1Cl (configuration not stated)	inactive

====

Read-out: CD40, CD40 (gene 958)
assayMethodText: BSK_SAg_CD40: BioMAP Diversity Plus: SAg Assay for CD40 Biomarker Activity (AID 2283088)
settings: primary human HUVEC with PBMC; actives raise or lower the signal
Activity calls are given as the source filed them. The calls were made as follows: active = hit-call score of the fitted dose curve at least 0.9, where 1 is the maximum; inactive = score below 0.9.
Labels: active, inactive

compound	category
CC(C)(C)C(O)C(Oc1ccc(-c2ccccc2)cc1)n1cncn1 (stereo unspecified)	inactive
CCCC[N+](CCCC)(CCCC)CCCC	inactive
CCc1cc(C)cc(CC)c1-c1c(OC(=O)C(C)(C)C)n2n(c1=O)CCOCC2	inactive
CC(C)CCCCCCCOC(=O)c1ccccc1C(=O)OCCCCCCCC(C)C	inactive
COC(C)(C)CCC[C@H](C)C/C=C/C(C)=C/C(=O)OC(C)C	active
CC(=O)/C=C/c1ccccc1	inactive

====

assayMethodText: IUF_NPC2a_radial_glia_migration_120hr: Leibniz Research Institute for Environmental Medicine (IUF) 120-hour Neural Progenitor Cell Migration Assay for Radial Glia Migration (NPC2a) (AID 2284298)
Active and inactive are the calls of the source. The calls were made as follows: active = hit-call score of the fitted dose curve at least 0.9, where 1 is the maximum; inactive = score below 0.9.
Possible outcomes: 1 for active, -1 for inactive

compound	category
C[n+]1ccc(-c2ccccc2)cc1	-1
CNC(=N[N+](=O)[O-])NCC1CCOC1 (stereo not given)	-1
[O-][Cl+3]([O-])([O-])O	-1
CC1(C)[C@H](C=C(Cl)Cl)[C@H]1C(=O)OCc1c(F)c(F)cc(F)c1F	-1
C/C(=C/C=C/[C@@H](C)C(=O)O)[C@H]1CN[C@H](C(=O)O)[C@H]1CC(=O)O	-1
CC(=O)[O-].[Tl+]	1
CC1(C)C(C=C(Cl)Cl)[C@H]1C(=O)O[C@H](C#N)c1cccc(Oc2ccccc2)c1 (stereo not given in full)	-1
CCOP(=O)(OCC)SCSCC	-1
COP(=O)(OC)SCN1C(=O)c2ccccc2C1=O	-1
CCOP(=O)(OCC)OC(Cl)C(Cl)(Cl)Cl (stereo not given)	-1
CP(=O)(O)CCC(N)C(=O)O (stereo not given)	-1
Brc1ccc(Oc2ccc(Br)cc2Br)c(Br)c1	-1
CCOP(=O)(OCC)SCSC(C)(C)C	1
CCOP(=S)(OCC)SCS(=O)C(C)(C)C (stereo not given)	-1
CC(=O)[O-].CC(=O)[O-].O.O.O.[Pb+2]	-1

====

assayMethodText: CCTE_Shafer_MEA_dev_correlation_coefficient_mean: CCTE's Neural Network Formation Assay for Mean Correlation Coefficient, Shafer Lab (AID 2284093)
Activity calls are given as the source filed them. The calls were made as follows: active = hit-call score of the fitted dose curve at least 0.9, where 1 is the maximum; inactive = score below 0.9.
Possible outcomes: 1 = active, -1 = inactive

compound	category
Brc1ccc(Oc2cc(Br)c(Br)cc2Br)c(Br)c1	1
CP(=O)(O)CC[C@H](N)C(=O)O	-1
CNC(=N[N+](=O)[O-])NCC1CCOC1 (stereo not given)	-1
CCC[CH2][Sn]([CH2]CCC)([CH2]CCC)[O][Sn]([CH2]CCC)([CH2]CCC)[CH2]CCC	1
CCOP(=O)(OCC)SCSCC	-1
CC(C)CCCCCCCOP(=O)(Oc1ccccc1)Oc1ccccc1	-1
Cc1ccc(OP(=O)(Oc2ccc(C)cc2)Oc2ccc(C)cc2)cc1 (tested in a mixture with another compound)	-1
CC1(C)[C@@H](C=C(Cl)Cl)[C@@H]1C(=O)O[C@@H](C#N)c1ccc(F)c(Oc2ccccc2)c1	1
CC1(C)C(C=C(Cl)c2ccc(Cl)cc2)C1C(=O)OC(C#N)c1ccc(F)c(Oc2ccccc2)c1 (stereo not given)	1
COP(=O)(OC)SCN1C(=O)c2ccccc2C1=O	-1
